Provenance of the data: PubChem BioAssay

test description: TOR pathway RTG branch CIT2 reporter changes – S. cerevisiae, GFP fusion, multiplex flow cytometry, primary screen (AID 1870);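 further: barcoded CIT2-GFP strain pooled with four other GFP strains with rapamycin as positive control; median GFP fluorescence per well over plate mean of DMSO wells so 100% = DMSO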
measurement conditions: S. cerevisiae CIT2-GFP expression, 3 h, at 10 µM, hits give high values
measurement type: percent response of DMSO control (%)
Answers are plain numbers, in %.

Take a look at these entries with their results.
CC(=O)OCC(=O)[C@@]1(O)CC[C@H]2[C@@H]3CCC4=CC(=O)C=C[C@]4(C)[C@H]3[C@@H](O)C[C@@]21C: 99.2
O=C1OC(Nc2ccc3c(c2)OCO3)c2ccccc21 (stereo not given): 93.1
COc1cccc(OCC(O)CO)c1 (stereo not given): 107
NC(N)=N/N=C/c1c(Cl)cccc1Cl: 105
CC(=O)N1c2ccccc2C(C)=CC1(C)C: 98.3

Go through the items and report each one's percent response of DMSO control.
1. O=CNC1CCCc2c1[nH]c1ccc(Cl)cc21 (stereo not given)
2. COc1cc(SC)ccc1C(=O)NC(C)C
3. O=C(O)CCC(=O)c1ccc(-c2ccccc2)cc1
4. CC(C)C(=O)Nc1ccc2c3c(cccc13)CC2

Result:
[100, 99.6, 102, 92]

Okay, here is my list. What is percent response of DMSO control for each of these?
1. COc1ccccc1/C=C/CN1CCN(Cc2ccc(F)cc2)C(CCO)C1 (stereo not given)
2. CCn1c(N2CCN(CC(=O)c3c(C)n(C)c4ccc(OC)cc34)CC2)nc2c1c(=O)[nH]c(=O)n2C
3. O=C(COc1cc(O)c2c(=O)c3ccccc3oc2c1)OCc1ccccc1
4. Cc1ccc(NC(=O)CSc2nc(O)c(Cc3ccccc3)c(=O)n2-c2ccccc2)cc1
5. COc1ccc2c(c1OC)C(=O)OC2C1c2c(cc3c(c2OC)OCO3)CCN1C (stereo not given)
6. CN1CCCN(C(c2ccccc2)c2ccc(Cl)cc2)CC1 (stereo not given)

Result:
1. 98.2
2. 97.8
3. 109
4. 94.2
5. 104
6. 103
